B1: minF1; the commonest letter at each place (parent)
chain: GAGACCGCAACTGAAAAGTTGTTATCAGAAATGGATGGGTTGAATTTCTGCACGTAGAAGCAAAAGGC

variants of: B1; test: fraction ligated after 30 min (ligated reads / total reads); higher = more ligase activity; settings: with F1*subA RNA substrate (template-directed ligation), 42 °C
READOUT TYPE: fraction ligated
Give the figure by itself; no unit, no explanation.

# lookup: fraction ligated of T23C G33T
0.0728

# lookup: fraction ligated of T32C G42T
0.0036

# lookup: fraction ligated of T25C G37A
0.00575

# lookup: fraction ligated of A31C A44C
0.655

# lookup: fraction ligated of T23A T36C
0.012

# lookup: fraction ligated of C26T A44G
0.142

# lookup: fraction ligated of A29C G33A
0.784

# lookup: fraction ligated of T32G G34A
0.0029

# lookup: fraction ligated of T25G A35G
0.00379

# lookup: fraction ligated of A30C G34C
0.00405

# lookup: fraction ligated of T36A A44C
0.00684

# lookup: fraction ligated of A30C G34T
0.00409

# lookup: fraction ligated of C26A T32A
0.00455

# lookup: fraction ligated of A27C T36G
0.0955

# lookup: fraction ligated of A24G A30C
0.0534

# lookup: fraction ligated of T25A G34A
0.00806

# lookup: fraction ligated of T36G A44G
0.00979

# lookup: fraction ligated of T36G A43T
0.00809

# lookup: fraction ligated of G34C A44G
0.00318

# lookup: fraction ligated of A31T G34T
0.0067

# lookup: fraction ligated of A29G A43C
0.0987

# lookup: fraction ligated of C26A A43G
0.00987
